molecular target: hEP4 (C6 glioma cells overexpressing hEP4) (Homo sapiens, UniProt P35408); construct: host or cells: C6 glioma cells overexpressing hEP4; assay: hEP4 cell based assay (cAMP), inhibition of PGE2 induced cAMP, HTRF; conditions: 1 μM compound, PGE2 at EC80
Sequence (P35408 whole entry): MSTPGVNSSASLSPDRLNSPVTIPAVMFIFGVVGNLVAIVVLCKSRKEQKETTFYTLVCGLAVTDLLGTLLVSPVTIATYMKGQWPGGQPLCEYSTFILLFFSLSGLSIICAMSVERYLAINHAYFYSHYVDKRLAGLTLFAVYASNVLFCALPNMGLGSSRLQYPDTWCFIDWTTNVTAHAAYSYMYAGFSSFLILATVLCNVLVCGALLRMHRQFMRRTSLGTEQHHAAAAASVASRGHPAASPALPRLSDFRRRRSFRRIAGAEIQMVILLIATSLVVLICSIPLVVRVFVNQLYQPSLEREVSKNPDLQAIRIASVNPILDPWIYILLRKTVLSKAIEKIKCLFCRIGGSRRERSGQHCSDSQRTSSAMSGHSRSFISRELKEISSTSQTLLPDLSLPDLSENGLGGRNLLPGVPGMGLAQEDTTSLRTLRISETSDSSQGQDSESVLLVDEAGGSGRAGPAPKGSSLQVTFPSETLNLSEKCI
experimentalReadout: inhibition at 1 µM (%)
Output spec: scalar in %, unitless text.

State the recorded inhibition at 1 µM for this entry: `C[C@H](Nc1nccc2c1N(Cc1ccc(F)c(F)c1)CCC2)c1ccc(C(=O)O)cc1`
92

State the recorded inhibition at 1 µM for this entry: `C[C@H](Nc1nccc2c1N(CCOc1ccc(F)cc1)CCO2)c1ccc(C(=O)O)cc1`
90

State the recorded inhibition at 1 µM for this entry: `C[C@H](Nc1nccc2c1N(CCc1cccc(Cl)c1)CCO2)c1ccc(C(=O)O)cc1`
85

State the recorded inhibition at 1 µM for this entry: `COc1ccc(CN2CCOc3ccnc(NC4(c5ccc(C(=O)O)cc5)CC4)c32)cc1`
87

State the recorded inhibition at 1 µM for this entry: `C[C@H](Nc1nccc2c1N(Cc1cc(F)cc(F)c1)CCO2)c1ccc(C(=O)O)cc1`
100

State the recorded inhibition at 1 µM for this entry: `Cc1ccc(CN2CCOc3ccnc(N[C@@H](C)c4ccc(C(=O)O)cc4)c32)cc1`
100

State the recorded inhibition at 1 µM for this entry: `C[C@H](Nc1nccc2c1N(Cc1ccc(C(F)(F)F)o1)CCO2)c1ccc(C(=O)O)cc1`
98

State the recorded inhibition at 1 µM for this entry: `COc1ccc(CN2CCOc3ccnc(N[C@@H](C)c4ccc(C(=O)O)cc4)c32)cc1`
99

====

biological target: hEP4 (C6 glioma cells overexpressing hEP4) (Homo sapiens, UniProt P35408); construct: host or cells: C6 glioma cells overexpressing hEP4; assay: hEP4 cell based assay (cAMP), inhibition of PGE2 induced cAMP, HTRF; details: 1 μM compound, PGE2 at EC80
Would you kindly list inhibition at 1 µM for each of these molecules?
Output spec: scalar in %, unitless text.

State the recorded inhibition at 1 µM for this entry: C[C@H](Nc1nccc2c1N(Cc1ccc(C(F)(F)F)cc1)CCO2)c1ccc(C(=O)O)cc1 [Example B5]
100

State the recorded inhibition at 1 µM for this entry: Cc1cccc(CN2CCOc3ccnc(N[C@@H](C)c4ccc(C(=O)O)cc4)c32)c1 [Example B10]
100

State the recorded inhibition at 1 µM for this entry: COc1cccc(CN2CCOc3ccnc(NC4(c5ccc(C(=O)O)cc5)CC4)c32)c1 [Example B23]
74

State the recorded inhibition at 1 µM for this entry: O=C(O)c1ccc(C2(Nc3nccc4c3N(Cc3ccc(C(F)(F)F)cc3)CCO4)CC2)cc1 [Example B20]
92

State the recorded inhibition at 1 µM for this entry: C[C@H](Nc1nccc2c1N(Cc1ccc(C(F)(F)F)cc1)CCO2)c1ccc(C(N)=O)cc1 [Example D1]
98

State the recorded inhibition at 1 µM for this entry: O=C(O)c1ccc(C2(Nc3nccc4c3N(Cc3ccccc3)CCO4)CC2)cc1 [Example B22]
90

State the recorded inhibition at 1 µM for this entry: COc1cccc(CN2CCOc3ccnc(N[C@@H](C)c4ccc(C(=O)O)cc4)c32)c1 [Example B12]
100

State the recorded inhibition at 1 µM for this entry: O=C(O)c1ccc(C2(Nc3nccc4c3N(Cc3ccc(F)cc3)CCO4)CC2)cc1 [Example B18]
79
